System: HCT-116
test.description: NCI tumour cell line growth inhibition, 48 h
Activity calls are given as the source filed them. Cut-off read from the data, not from the text of the source: active = GI50 up to about 1.1 µM and inactive = higher.
Outcomes: Y = active, N = inactive

compound: C=CC(=O)N1C/C(=C\c2ccccc2)C(=O)/C(=C/c2ccccc2)C1
qualitative.label: Y

compound: O=C(c1no[n+]([O-])c1C(=O)c1csc2ccccc12)c1csc2ccccc12
qualitative.label: N

compound: CCC(=C(C#N)C#N)c1cc(OC)c(OC)c(OC)c1
qualitative.label: N

compound: C[C@]12CC[C@H](O)C[C@@H]1CC[C@@H]1[C@@H]2CC[C@]2(C)[C@@H](C3=CC(=O)OC3)CC[C@]12O
qualitative.label: N

compound: O=c1cc(C(F)(F)F)c2cc3c(cc2o1)NCCC3
qualitative.label: N

compound: O=C1Nc2ccccc2/C1=N/N=c1\cccc[nH]1
qualitative.label: N

compound: N#C/N=C(\N)NCCO
qualitative.label: N

compound: Cc1ccc(S(=O)(=O)Nn2c(C)cc3ccc(S(=O)(=O)Nc4ccccc4[N+](=O)[O-])cc3c2=O)cc1
qualitative.label: N

compound: CC(=O)NC1C(OCc2ccccc2)OC(COC(=O)CCCCCNc2ccc([N+](=O)[O-])c3[nH]c4ccc(O)cc4c(=O)c23)C(O)C1OC(C)C(=O)N[C@@H](C)C(=O)N[C@H](CCC(=O)OCc1ccccc1)C(N)=O (some centres undefined)
qualitative.label: Y

###

The entries below come with measured GI50 values attached.
System: HL-60
test.description: NCI tumour cell line growth inhibition, 48 h
Calls of active or inactive are those of the source. Cut-off read from the data, not from the text of the source: active = GI50 up to about 1.1 µM and inactive = higher.

compound: CCCCC1=C(C(=O)N2CCOCC2)C2(OCCO2)C1Cl (centres undefined)
target: HL-60
GI50: > 100 µM (inactive)

compound: [O-]c1c[n+](CCCC[n+]2cc([O-])on2)no1
target: HL-60
GI50: > 100 µM (inactive)

compound: CC(C)(Oc1ccc(/C=C/C(=O)c2ccccc2)cc1)C(=O)Nc1c(Cl)cccc1Cl
target: HL-60
GI50: 14.7 µM (inactive)

compound: C[n+]1ccc(/C2=C3\C=CC(=N3)/C(c3cc[n+](C)cc3)=c3/cc/c([nH]3)=C(\c3cc[n+](C)cc3)C3=N/C(=C(/c4cc[n+](C)cc4)C4C=CC2N4)C=C3)cc1
target: HL-60
GI50: > 100 µM (inactive)

###

System: OVCAR-8
test.description: NCI tumour cell line growth inhibition, 48 h
Active and inactive are the calls of the source. No stated cut-off is given here; in the data, active = GI50 up to about 1.1 µM and inactive = higher.

compound: CC1=C(C(=O)Nc2ccccc2)C(c2cc(Cl)cc(Cl)c2)C(C(=O)Nc2ccccc2)=C(C)N1
GI50: 10.5 µM (inactive)

compound: O=[N+]([O-])c1cccc([N+](=O)[O-])c1S(=O)(=O)c1ccccc1
GI50: 2.48 µM (inactive)

compound: CC1(C)OC2[C@@H](CO[C@@]3([C@H]4OC(C)(C)O[C@@H]4CO)OC(C)(C)O[C@@H]23)O1 (stereo partly specified)
GI50: > 100 µM (inactive)

compound: Cc1cnc2c(c1)C(=O)C1=C(OC(C)(C)CC1O)C2=O (stereo unspecified)
GI50: 15 µM (inactive)

compound: CCNC(=O)Nc1ccccn1
GI50: > 100 µM (inactive)

compound: O=C(OCC1CO1)c1cccs1 (stereo unspecified)
GI50: > 100 µM (inactive)

compound: CC(C)c1ccc(/C=C2/C=C(c3ccc4ccccc4c3)OC2=O)cc1
GI50: 45.2 µM (inactive)

compound: c1ccc(OCc2nnc3n2N=C(c2ccccc2)CS3)cc1
GI50: > 100 µM (inactive)

compound: CC1CN1c1c(C(=O)/C=C/c2ccc(F)cc2)c(-c2ccccc2)nn(C)c1=O (stereo unspecified)
GI50: 14.2 µM (inactive)

compound: COC(=O)CCC1(O)C=CC(=O)C=C1
GI50: 31.7 µM (inactive)

compound: CC(=O)Nc1ncc2c(n1)-c1ccccc1OC2c1ccccc1 (stereo unspecified)
GI50: 23.6 µM (inactive)

The origin of these recorded values is ChEMBL document CHEMBL1201862.
